# test_summary: NCI Yeast Anticancer Drug Screen. Data for the wt2 strain (AID 169);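 also: 0% = growth of vehicle-treated yeast cultures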
# experimental_parameters: S. cerevisiae wt2 strain growth inhibition; at 1.2 µM; active compounds read high
Compounds without any hit were thinned out: in the full panel of roughly 79,000, 15% have a hit.
Provide the reported growth inhibition of each item.
Give bare numbers, in %.

[
  {
    "compound": "CCOC1Oc2ccccc2-c2nc(N)ncc21 (configuration not stated)",
    "value_units": "%",
    "growth inhibition": -3
  },
  {
    "compound": "CCN(CC)Cc1cc(Nc2c3ccccc3nc3c2[nH]c2ccccc23)cc(CN(CC)CC)c1O",
    "value_units": "%",
    "growth inhibition": -1
  },
  {
    "compound": "CNC(=O)OCc1c(COC(=O)NC)c(-c2ccc(Cl)cc2)n2c1CCC2",
    "value_units": "%",
    "growth inhibition": -31
  }
]

For each of the compounds below, note its growth inhibition.
1. N#CNC(N)=Nc1cc2ccccc2c2ccccc12
2. c1ccc2c(c1)sc1c3cnccc3ccc21
3. CCc1c[n+]([O-])c(C)cc1[N+](=O)[O-]

// result
[17, 8, 0]

---

# test_summary: NCI Yeast Anticancer Drug Screen. Data for the wt1 strain (AID 149);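 also: 0% = growth of vehicle-treated wt1 cultures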
# experimental_parameters: S. cerevisiae wt1 strain (SPY 50644) growth inhibition; at 11.0 µM; active compounds read high
Compounds without any hit were thinned out: in the full panel of roughly 79,000, 15% have a hit.
Provide the reported growth inhibition of each item.
Numbers only, in %.

Below: 3 compounds and their reported growth inhibition.
[
  {
    "compound": "COC(=O)C1(C)CCc2c(ccc3ccccc23)C1=O (stereo not drawn)",
    "value_units": "%",
    "quantitative_readout": -3
  },
  {
    "compound": "Cc1ccc(NC(=O)/C(CC2N=c3c(ccc4c(O)c5ccccc5c(O)c34)=NC2O)=N/NC(C)(C)C)cc1 (stereo not drawn)",
    "value_units": "%",
    "quantitative_readout": -2
  },
  {
    "compound": "O=c1ssc(=Nc2ccccc2)n1-c1ccccc1",
    "value_units": "%",
    "quantitative_readout": -4
  }
]

For each of the compounds below, note its growth inhibition.
1. CCOC(=O)C1=C(C)NC(C)=C(C(=O)OCCNC(=O)c2ccc(N=[N+]=[N-])cc2)C1c1ccccc1C(F)(F)F (stereo not drawn)
2. O=C(O)c1cc2ccc(Cl)cc2c(O)c1C1=CCCCC1
3. Clc1ccc(NCNC2Nc3ccccc3N2)cc1Cl
4. c1ccc(CCN2CCc3ccccc3C2)cc1

// result
[-2, 6, 8, 4]

For each of the compounds below, note its growth inhibition.
1. COc1cc2ccnc(-c3c4ccccc4c(N)c4c(OC)c(OC)ccc34)c2cc1OC
2. N#CNC(N)=Nc1cc2ccccc2c2ccccc12
3. Oc1ccc2c(c1)C(O)CCCC2 (stereo not drawn)
4. O=C1Nc2ccc(Br)cc2C1=Nc1ccc2c(c1)OCO2
5. CCC1(OC(=O)CN2CCN(CCO)CC2)C(=O)OCc2c1cc1n(c2=O)Cc2cc3ccccc3nc2-1 (stereo not drawn)
6. CC(=O)SC(C[N+](=O)[O-])c1ccccc1 (stereo not drawn)

// result
[-5, 61, -4, -12, 24, 17]

For each of the compounds below, note its growth inhibition.
1. O=C(O)c1ccccc1/C=N/N=C1c2ccccc2-c2ccccc21
2. C[C@]12CC[C@H](O)CC1=CC[C@@H]1C2CC[C@]2(C)C(=O)NC(=O)CC12 (stereo partly drawn)
3. O/N=C\c1c(O)ccc2ccccc12
4. Cc1ccccc1N=C(NO)c1ccccc1
5. CCCCCCCCCCCCCCCCCC(=O)NCCCN(C)C

// result
1. 1
2. -21
3. 0
4. -6
5. -56

For each of the compounds below, note its growth inhibition.
1. CCCCCOC(=S)SC(=O)OCC
2. COC(=O)Oc1cc(Cl)c(Cl)cc1Cl
3. C/C(=N\Nc1ccc([N+](=O)[O-])cc1[N+](=O)[O-])c1sc(-n2nc(-c3ccccc3)cc2-c2ccccc2)nc1C
4. COc1oc(C(=O)NC2CCCCC2)c(-c2ccc(Cl)cc2)c1S(=O)(=O)c1ccccc1
5. CC(=O)OCC(C)Cc1cc2c(cc1Br)OCO2 (stereo not drawn)
6. Cc1ccc(N=Nc2ccc(O)c(=O)cc2)cc1
7. CCOC(=O)/C(=C\c1ccc(C#N)cc1)C(C)=O

// result
[8, -3, -13, 68, 6, 37, 9]

For each of the compounds below, note its growth inhibition.
1. CCCOC(=O)C(F)C(Br)C(=O)OCCC (stereo not drawn)
2. CC(C)(C)N=C(NO)c1ccccc1
3. CC(C)CN(CC(C)C)C(=O)c1ccc(Cl)c(Cl)c1
4. Nc1cc(N)c(N=Nc2cccc3c(S(=O)(=O)O)cccc23)cc1N=Nc1cc([N+](=O)[O-])ccc1O
5. CC1(C)CC(=O)C(/C=N/c2nc(-c3ccccc3)cs2)=C(O)C1

// result
1: 98; 2: 5; 3: -3; 4: 7; 5: 6

For each of the compounds below, note its growth inhibition.
1. CCCC(=O)Oc1ccc(/C=N/NC(N)=S)nc1
2. CCCCCCCCCCCC1=NCCO1
3. O=Cc1ccc2c(c1)C(=O)c1ccccc1C2=O
4. CCO/C(C)=C(/C#N)C(N)=S
5. N#CC1=C(N)N(/N=C/c2ccccc2)C(c2ccccc2)C1(C#N)C#N (stereo not drawn)
6. CC(C)(CCCCC(C)(C)[N+](C)(C)C)[N+](C)(C)C
7. CC(C)c1ccc(NC(=S)NC(=O)c2ccccc2)cc1

// result
[1, 2, 7, 0, 10, -1, 4]

For each of the compounds below, note its growth inhibition.
1. Cc1cc(O)c(C(C)C)cc1C1(c2cc(C(C)C)c(O)cc2C)OC(=O)c2ccccc21
2. CC(C)=NOC(=O)Nc1ccc(Cl)cc1
3. OC(CCNCc1ccccc1)c1ccc2ccccc2c1 (stereo not drawn)
4. CCCCCCCCCCCC1N=C(N)NC(CCCO)=C1C(=O)OC (stereo not drawn)

// result
1: 5; 2: -21; 3: 41; 4: 99

For each of the compounds below, note its growth inhibition.
1. CS(=O)(=O)SCc1ccc([N+](=O)[O-])cc1
2. CCOC(=O)c1[nH]n(-c2ccccc2)c(=O)c1C=NC(=S)C(N)=S
3. Cc1cc(C(C)(C)CC(C)(C)C)ccc1O
4. O=C1C=C(Cl)C(=O)C(c2ccc(Cl)cc2)=C1
5. Cc1ccc(S/C(=C\C(=O)O)c2ccccc2)cc1
6. Clc1ccc2c(c1)N(CCCN1CCCC13CCCCC3)c1ccccc1S2
7. CCc1c(Cl)c(C)cc(O)c1Cl

// result
[38, 25, 17, 21, -8, -5, -33]

---

# test_summary: NCI Yeast Anticancer Drug Screen. Data for the mlh1 rad18 strain (AID 175)
# experimental_parameters: S. cerevisiae mlh1 rad18 strain growth inhibition; at 50.0 µM (retest, dose inferred, filed as 5.0)
The panel holds about 79,000 compounds, 15% with a hit somewhere; the sample as a whole holds those more often. Activity calls are given as the source filed them. Rule as the data show it: active = growth inhibition above about 70%; inactive = the rest.
Your answer must be one of the following: active, inactive

// query Fill in: this test's call for CCOC(=O)C(Br)C(Br)c1ccccc1Cl (stereo unspecified) is ___
// result active

// query Fill in: this test's call for CC(C)CCCC(C)C1CCC2C3CCC4=CC(=O)/C(=C\O)CC4(C)C3CCC12C (stereo unspecified) is ___
// result inactive

// query Fill in: this test's call for Cn1c(=O)c2c(nc(N)n2C2OC(CO)C(O)C2O)n(C)c1=O (stereo unspecified) is ___
// result inactive

// query Fill in: this test's call for Cc1ccc(S/C(=C\C(=O)O)c2ccccc2)cc1 is ___
// result active

// query Fill in: this test's call for CC(=O)SC(C[N+](=O)[O-])c1ccccc1 (stereo unspecified) is ___
// result active

// query Fill in: this test's call for CCCCCCCCCCCC1=NCCO1 is ___
// result active

// query Fill in: this test's call for Cc1cc2c3ccccc3c3ccccc3c2nn1 is ___
// result inactive

// query Fill in: this test's call for COC(=O)/C=C(/CC(=O)OC)C(=O)OC is ___
// result inactive

// query Fill in: this test's call for CCCCCCCCCCCC1N=C(N)NC(CCCO)=C1C(=O)OC (stereo unspecified) is ___
// result active

// query Fill in: this test's call for CCN(CC)CCNc1ccc([N+](=O)[O-])c2nc3ccccc3c(N)c12 is ___
// result inactive

// query Fill in: this test's call for CCCCC/C(=C(\C#N)C(=O)OCC)c1ccccc1 is ___
// result inactive

// query Fill in: this test's call for COC(=O)CCC(NC(=S)N/N=C(\C)c1ccccn1)C(=O)OC (stereo unspecified) is ___
// result active

// query Fill in: this test's call for N/C(=N/N=C/c1cc(Br)cc(Br)c1O)NO is ___
// result active

// query Fill in: this test's call for c1ccc2c(c1)sc1c3cnccc3ccc21 is ___
// result inactive

// query Fill in: this test's call for CC(=O)Nc1ccc(/C=C/[N+](=O)[O-])cc1 is ___
// result active

// query Fill in: this test's call for CCc1nc2ccc(NCCN(C)C)c3c(=O)c4ccccc4n1c23 is ___
// result inactive

// query Fill in: this test's call for O=C(NO)Nc1cc(Cl)cc(Cl)c1 is ___
// result active

// query Fill in: this test's call for CNC(=O)OCc1c(COC(=O)NC)c2n(c1C)-c1ccc(OC)cc1CCC2 is ___
// result active

// query Fill in: this test's call for C[C@]12CC[C@H](O)CC1=CC[C@@H]1C2CC[C@]2(C)C(=O)NC(=O)CC12 (stereo partly specified) is ___
// result active

// query Fill in: this test's call for O=C1c2ccccc2C(=O)c2cc(CCl)ccc21 is ___
// result inactive

// query Fill in: this test's call for NC(=S)NC(=S)Nc1ccccc1 is ___
// result inactive

// query Fill in: this test's call for Oc1ccc2ccccc2c1CCc1c(O)ccc2ccccc12 is ___
// result active

// query Fill in: this test's call for CC(C)=NOC(=O)Nc1ccc(Cl)cc1 is ___
// result active
